Each record here notes measured pIC50.
Biological target: T1, rat parathyroid hormone receptor 1, wild-type (rPTHR-1) (rat, UniProt P25961 27-591)
T1 construct: whole, on cells; also called rat PTHR-1; rPTHR-1-WT
T1 sequence (looked up): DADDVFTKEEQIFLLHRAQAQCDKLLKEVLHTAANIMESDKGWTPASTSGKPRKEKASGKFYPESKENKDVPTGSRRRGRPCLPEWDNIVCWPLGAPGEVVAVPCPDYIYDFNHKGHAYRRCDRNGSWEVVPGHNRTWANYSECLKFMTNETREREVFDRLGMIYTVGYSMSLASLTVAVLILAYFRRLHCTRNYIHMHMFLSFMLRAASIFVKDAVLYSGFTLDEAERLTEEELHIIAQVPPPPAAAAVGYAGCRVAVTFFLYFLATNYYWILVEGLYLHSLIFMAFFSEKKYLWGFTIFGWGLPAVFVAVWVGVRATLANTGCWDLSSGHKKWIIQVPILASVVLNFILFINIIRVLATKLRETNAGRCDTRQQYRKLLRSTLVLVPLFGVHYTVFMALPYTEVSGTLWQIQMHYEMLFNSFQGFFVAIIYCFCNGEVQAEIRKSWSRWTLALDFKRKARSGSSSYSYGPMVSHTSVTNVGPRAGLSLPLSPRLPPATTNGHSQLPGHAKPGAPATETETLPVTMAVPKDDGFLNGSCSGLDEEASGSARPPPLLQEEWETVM
Assay: R0 state; 125I-PTH(1-34) displacement; COS-7 membranes, rPTHR-1, GTPγS
Non-standard residues stand in square brackets, D forms with d. No end group written: not given here. β3hW = N[C@H](CC(=O)O)Cc1c[nH]c2ccccc12; β3hE = N[C@@H](CCC(=O)O)CC(=O)O; β3hF = N[C@H](CC(=O)O)Cc1ccccc1; β3hK = NCCCC[C@H](N)CC(=O)O; β3hM = CSCC[C@H](N)CC(=O)O; β3hD = NC(CC(=O)O)CC(=O)O
The scale used: pIC50 is minus the common logarithm of the concentration in molar units.

Solved entries (count: 3):
SVSEIQLMHNLGKHLNSMERVEWLRKKLQDVQNF-NH2 (not fully specified (residue 32); printed as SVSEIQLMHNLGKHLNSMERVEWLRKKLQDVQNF-NH2; also: three β3 residues, positions not given here in text, also called α/β-peptide B3) [B3] ... 6.95
SVSEIQLMHNLGKWLNSMERVEWLRKKLQDVHNF-NH2 (not fully specified (residue 14); printed as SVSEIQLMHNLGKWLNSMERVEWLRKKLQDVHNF-NH2; also: seven β3 residues, positions not given here in text, also called α/β-peptide D7) [D7] ... 7.83
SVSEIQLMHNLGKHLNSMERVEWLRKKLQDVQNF-NH2 (not fully specified (residues 20, 24, 28, 32); printed as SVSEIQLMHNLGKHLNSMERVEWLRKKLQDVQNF-NH2; also: five β3 residues, positions not given here in text, also called α/β-peptide B5) [B5] ... 7.19

Please look at the following binder next.
Query string: Quick one: pIC50 for SVSEIQLMHNLGK[β3hW]LNS[β3hM]ERV[β3hE]WLR[β3hK]KLQ[β3hD]VHN[β3hF]-NH2 (also called α/β-peptide D6) [D6] ?
Result string: 8.21
